Reference source for all entries: PubChem BioAssay (EPA / NIEHS)

Biological target: human Orphanin, Opioid Related Nociceptin Receptor 1 (ORL1), OPRL1 (gene 4987) (UniProt P41146)
Sequence (P41146 whole entry, looked up): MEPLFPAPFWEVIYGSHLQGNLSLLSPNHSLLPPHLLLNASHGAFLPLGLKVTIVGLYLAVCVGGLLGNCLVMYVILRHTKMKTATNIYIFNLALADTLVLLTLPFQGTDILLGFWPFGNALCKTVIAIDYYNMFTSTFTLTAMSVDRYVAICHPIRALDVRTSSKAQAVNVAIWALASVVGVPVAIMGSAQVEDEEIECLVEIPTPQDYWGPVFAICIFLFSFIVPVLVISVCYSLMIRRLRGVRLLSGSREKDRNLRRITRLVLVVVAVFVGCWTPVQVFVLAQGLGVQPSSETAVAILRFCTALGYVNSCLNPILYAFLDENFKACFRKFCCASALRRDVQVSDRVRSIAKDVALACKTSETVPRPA
Experiment: NVS_GPCR_hORL1: NovaScreen (NVS) G Protein-Coupled Receptor Assay for human Orphanin, Opioid Related Nociceptin Receptor 1 (ORL1) (AID 2283283)
Results filed as inconclusive are left out. The source made the active and inactive calls. How the source made its calls: active means hit-call score of the fitted dose curve at least 0.9, where 1 is the maximum; inconclusive means response in the unintended direction; inactive means score below 0.9.
Outcome (select one): active, inactive

stdin: Per the assay record, what outcome was assigned to `CCCCCCCCn1sccc1=O` ?
stdout: active

stdin: Per the assay record, what outcome was assigned to `COP(=S)(OC)SCN1C(=O)c2ccccc2C1=O` ?
stdout: active

stdin: Per the assay record, what outcome was assigned to `[Cl-].[Cl-].[Hg+2]` ?
stdout: active

stdin: Per the assay record, what outcome was assigned to `CCCCCOC(=O)c1ccccc1C(=O)OCCCCC` ?
stdout: inactive

stdin: Per the assay record, what outcome was assigned to `N#CC(Br)(Br)C(N)=O` ?
stdout: active

---

Assay: Tanguay_ZF_120hpf_BRAI_legacy: (Legacy) Oregon State University Tanguay Lab 120 Hour Post-fertilization zebrafish Assay for Brain Malformation (AID 2283641)
Inconclusive results are not listed. Activity calls are given as the source filed them. Rule for the calls: active = hit-call score of the fitted dose curve at least 0.9, where 1 is the maximum; inconclusive = response in the unintended direction; inactive = score below 0.9.
quantity: AC50

Observe how each entry below is paired with its result.
[
  {
    "compound": "CCC(C)c1ccc(O)cc1 (stereo unspecified)",
    "val": "inactive"
  },
  {
    "compound": "ClC1=C(Cl)[C@]2(Cl)[C@H]3[C@H]([C@@H]4C=C[C@H]3C4)[C@@]1(Cl)C2(Cl)Cl",
    "val": "inactive"
  },
  {
    "compound": "c1ccc(N=Nc2ccccc2)cc1",
    "val": "inactive"
  },
  {
    "compound": "Oc1ccc2ccc3cccc4ccc1c2c34",
    "val": "46.1 µM (active)"
  },
  {
    "compound": "N#CC(Br)Br",
    "val": "inactive"
  }
]

Pending compound:
Measured AC50, `CO[C@@H]1[C@H](OC(=O)NC(=O)CCl)CC[C@]2(CO2)[C@H]1[C@@]1(C)O[C@@H]1CC=C(C)C` : inactive

---

Read-out: CD40, CD40 (gene 958)
Assay: BSK_LPS_CD40: BioMAP Diversity Plus: LPS Assay for CD40 Biomarker Activity (AID 2283076)
Settings: primary human HUVEC with PBMC; actives raise or lower the signal
Active and inactive are the calls of the source. Rule for the calls: active = hit-call score of the fitted dose curve at least 0.9, where 1 is the maximum; inactive = score below 0.9.
Outcome (select one): class 1 for active, class 0 for inactive

stdin: Per the assay record, what outcome was assigned to CCC(C)c1ccc(O)cc1 (stereo not drawn) ?
stdout: class 0

stdin: Per the assay record, what outcome was assigned to `Nc1ccc([N+](=O)[O-])cc1` ?
stdout: class 0

stdin: Per the assay record, what outcome was assigned to `CS(=O)(=O)NC(=O)c1cc(Oc2ccc(C(F)(F)F)cc2Cl)ccc1[N+](=O)[O-]` ?
stdout: class 0

stdin: Per the assay record, what outcome was assigned to `CO[C@@H]1[C@H](OC(=O)NC(=O)CCl)CC[C@]2(CO2)[C@H]1[C@@]1(C)O[C@@H]1CC=C(C)C` ?
stdout: class 1

stdin: Per the assay record, what outcome was assigned to CCCCC(CC)COC(=O)c1ccc(C(=O)OCC(CC)CCCC)c(C(=O)OCC(CC)CCCC)c1 (stereo not drawn) ?
stdout: class 0

stdin: Per the assay record, what outcome was assigned to `O=Cc1ccco1` ?
stdout: class 0

stdin: Per the assay record, what outcome was assigned to `OCCCl` ?
stdout: class 0

stdin: Per the assay record, what outcome was assigned to `C=CCc1ccc2c(c1)OCO2` ?
stdout: class 0

stdin: Per the assay record, what outcome was assigned to c1ccc(C2CO2)cc1 (stereo not drawn) ?
stdout: class 0

stdin: Per the assay record, what outcome was assigned to `N#CC(Br)(Br)C(N)=O` ?
stdout: class 0

stdin: Per the assay record, what outcome was assigned to `C1=Cc2cccc3cccc1c23` ?
stdout: class 0

stdin: Per the assay record, what outcome was assigned to `Clc1ccc(C(c2ccc(Cl)cc2)C(Cl)(Cl)Cl)cc1` ?
stdout: class 1

stdin: Per the assay record, what outcome was assigned to `c1ccc2c(c1)-c1cccc3cccc-2c13` ?
stdout: class 0

---

What AC50 was measured for each of the following?
Target: human CYP1A2, CYP1A2 (gene 1544) (UniProt P05177)
Sequence (P05177 whole entry, looked up): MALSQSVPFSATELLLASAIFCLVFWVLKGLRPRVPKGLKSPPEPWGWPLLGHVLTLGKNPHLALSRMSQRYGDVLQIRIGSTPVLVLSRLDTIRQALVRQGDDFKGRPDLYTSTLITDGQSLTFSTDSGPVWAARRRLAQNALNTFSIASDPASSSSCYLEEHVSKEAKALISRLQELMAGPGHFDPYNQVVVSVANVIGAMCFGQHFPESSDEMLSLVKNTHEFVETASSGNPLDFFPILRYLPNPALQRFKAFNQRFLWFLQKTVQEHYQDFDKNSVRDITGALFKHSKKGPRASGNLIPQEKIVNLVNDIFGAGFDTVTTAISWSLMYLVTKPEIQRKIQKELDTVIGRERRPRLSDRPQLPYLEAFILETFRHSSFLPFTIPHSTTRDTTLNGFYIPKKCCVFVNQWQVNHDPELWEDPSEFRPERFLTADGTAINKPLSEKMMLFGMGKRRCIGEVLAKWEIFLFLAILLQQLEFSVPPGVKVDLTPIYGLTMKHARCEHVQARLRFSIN
Experiment: NVS_ADME_hCYP1A2: NovaScreen (NVS) CYP450-related Enzyme Activity (ADME) Assay for human CYP1A2 (AID 2283102);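 further: fluorescence from turnover of a fluorogenic substrate by recombinant insect-cell CYP1A2; potency for inhibition since loss of fluorescence marks reduced CYP1A2 activity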
Calls of active or inactive are those of the source. How the source made its calls: active means hit-call score of the fitted dose curve at least 0.9, where 1 is the maximum; inconclusive means response in the unintended direction; inactive means score below 0.9.

Measured AC50, `CC(C)COC(=O)c1ccccc1C(=O)OCC(C)C` : 7.52 µM (active)

Measured AC50, `Nc1ccc(Cl)cc1N` : 7.31 µM (active)

Measured AC50, `O=[N+]([O-])C(Br)(CO)CO` : 3.15 µM (active)

Measured AC50, `Cc1cccc(N)c1N` : 6.94 µM (active)

---

Read-out: Cytochrome P450 7A1 (Homo sapiens)
Test: LTEA_HepaRG_CYP7A1: Life Technologies and Expression Analysis (LTEA) Assay for Cytochrome P450 7A1 (CYP7A1) using HepaRG (AID 2283496)
Settings: mRNA level, 48 h; actives raise or lower the signal
The source made the active and inactive calls. The calls were made as follows: active = hit-call score of the fitted dose curve at least 0.9, where 1 is the maximum; inactive = score below 0.9.
Outcome (select one): true = active, false = inactive

stdin: Per the assay record, what outcome was assigned to `[Cl-].[Cl-].[Hg+2]` ?
stdout: false

stdin: Per the assay record, what outcome was assigned to `COC(=O)c1ccccc1N` ?
stdout: false

stdin: Per the assay record, what outcome was assigned to `Cn1cc(-c2ccccc2)c(=O)c(-c2cccc(C(F)(F)F)c2)c1` ?
stdout: false

stdin: Per the assay record, what outcome was assigned to `O=[N+]([O-])C(Br)(CO)CO` ?
stdout: false

stdin: Per the assay record, what outcome was assigned to `ClCCOCCCl` ?
stdout: false

stdin: Per the assay record, what outcome was assigned to `CN(C)c1ccccc1` ?
stdout: false

stdin: Per the assay record, what outcome was assigned to CC(O)CCO (stereo not given) ?
stdout: false

stdin: Per the assay record, what outcome was assigned to `CC(C)(OOC(C)(C)c1ccccc1)c1ccccc1` ?
stdout: false

stdin: Per the assay record, what outcome was assigned to `CN(C)c1ccc(C(=O)c2ccc(N(C)C)cc2)cc1` ?
stdout: false

stdin: Per the assay record, what outcome was assigned to `Nc1ccc([N+](=O)[O-])cc1` ?
stdout: false

stdin: Per the assay record, what outcome was assigned to `OCCCl` ?
stdout: false

stdin: Per the assay record, what outcome was assigned to `c1ccc2c(c1)oc1ccccc12` ?
stdout: false

stdin: Per the assay record, what outcome was assigned to `CNC(=O)Oc1cccc2c1OC(C)(C)C2` ?
stdout: true

stdin: Per the assay record, what outcome was assigned to `COC(=O)Nc1nc2ccccc2[nH]1` ?
stdout: false

stdin: Per the assay record, what outcome was assigned to `Clc1ccc(C(c2ccc(Cl)cc2)C(Cl)(Cl)Cl)cc1` ?
stdout: false

---

Target: CCAAT/enhancer-binding protein beta (Homo sapiens) (UniProt P17676)
Sequence (P17676 whole entry, looked up): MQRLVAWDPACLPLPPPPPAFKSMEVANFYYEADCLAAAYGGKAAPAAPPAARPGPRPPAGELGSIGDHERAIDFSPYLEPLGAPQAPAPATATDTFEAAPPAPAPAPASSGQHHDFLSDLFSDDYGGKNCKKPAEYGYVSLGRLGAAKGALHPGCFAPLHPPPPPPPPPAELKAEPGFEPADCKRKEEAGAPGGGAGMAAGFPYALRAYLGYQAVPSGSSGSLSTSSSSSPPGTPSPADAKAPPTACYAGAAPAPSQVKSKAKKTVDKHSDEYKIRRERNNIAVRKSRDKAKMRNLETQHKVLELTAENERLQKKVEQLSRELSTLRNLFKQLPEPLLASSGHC
Test: ATG_C_EBP_CIS: Attagene CIS-FACTORIAL HepG2 Assay for human CCAAT/Enhancer Binding Protein (C/EBP) beta (AID 2282927)
Settings: HepG2 Attagene cis-factorial transcription factor reporter; actives raise or lower the signal
The source made the active and inactive calls. The calls were made as follows: active = hit-call score of the fitted dose curve at least 0.9, where 1 is the maximum; inactive = score below 0.9.
Outcome (select one): active, inactive

stdin: Per the assay record, what outcome was assigned to `Cc1ccc([N+](=O)[O-])cc1` ?
stdout: inactive

stdin: Per the assay record, what outcome was assigned to `CNC(=O)Oc1cccc2c1OC(C)(C)C2` ?
stdout: inactive

stdin: Per the assay record, what outcome was assigned to CCC(C)c1ccc(O)cc1 (configuration not stated) ?
stdout: inactive

stdin: Per the assay record, what outcome was assigned to `Brc1ccc(Oc2ccccc2)cc1` ?
stdout: inactive

stdin: Per the assay record, what outcome was assigned to `COc1cc(C=O)cc2c1[C@H](COC(N)=O)[C@]1(OC(C)=O)ON2C[C@H]2[C@@H]1N2C(C)=O` ?
stdout: active

stdin: Per the assay record, what outcome was assigned to CCOc1cccc(C2(N3CCN(c4ccccc4)CC3)CCC(C)CC2)c1 (configuration not stated) ?
stdout: inactive

stdin: Per the assay record, what outcome was assigned to C[N+](C)(C)CC1CO1 (configuration not stated) ?
stdout: inactive

---

Read-out: CD69, CD69 (gene 969)
Assay: BSK_SAg_CD69: BioMAP Diversity Plus: SAg Assay for CD69 Biomarker Activity (AID 2283089)
Details: primary human HUVEC with PBMC; actives raise or lower the signal
Activity calls are given as the source filed them. Rule for the calls: active = hit-call score of the fitted dose curve at least 0.9, where 1 is the maximum; inactive = score below 0.9.
Outcome (select one): TRUE = active, FALSE = inactive

stdin: Per the assay record, what outcome was assigned to `Cc1ccc(N)cc1` ?
stdout: FALSE

stdin: Per the assay record, what outcome was assigned to `OCCCl` ?
stdout: FALSE

stdin: Per the assay record, what outcome was assigned to `Cc1cccc(N)c1N` ?
stdout: FALSE

stdin: Per the assay record, what outcome was assigned to `c1ccc2c(c1)oc1ccccc12` ?
stdout: FALSE

stdin: Per the assay record, what outcome was assigned to `CC(C)(C)OOC(=O)c1ccccc1` ?
stdout: FALSE

stdin: Per the assay record, what outcome was assigned to `CCCCCOC(=O)c1ccccc1C(=O)OCCCCC` ?
stdout: TRUE

stdin: Per the assay record, what outcome was assigned to `CO[C@@H]1[C@H](OC(=O)NC(=O)CCl)CC[C@]2(CO2)[C@H]1[C@@]1(C)O[C@@H]1CC=C(C)C` ?
stdout: FALSE

stdin: Per the assay record, what outcome was assigned to `CCC12COCN1COC2` ?
stdout: FALSE
